system: K562; experiment: Cytotoxicity against human K562 cells assessed as cell growth inhibition incubated for 72 hrs by celltiter-glo luminescent cell viability assay; type: functional
Note to self: GI50 under 4 nM means true (1), ties and anything higher get false (0).

I wonder whether `CC(C)(C)c1cc(NC(=O)Nc2ccc(Oc3ccc4cccnc4c3)cc2)n(-c2ccc3ncccc3c2)n1` has GI50 below 4 nM. Can you tell?
false (0)

Quick check: GI50 of `CN1CCN(Cc2ccc(NC(=O)Nc3ccc(Oc4ccc5cccnc5c4)cc3)cc2C(F)(F)F)CC1` under 4 nM?
false (0)

I'd appreciate it if you could check whether `CC(C)(C)c1cc(NC(=O)Nc2ccc(Oc3ccc4ncccc4c3)cc2)n(-c2ccc3ncccc3c2)n1` has GI50 smaller than 4 nM.
false (0)

Problem: For the compound `CN1CCN(Cc2ccc(NC(=O)Nc3ccc(Oc4ccc5ncccc5c4)cc3)cc2C(F)(F)F)CC1` , is GI50 under 4 nM?
false (0)

Does `CN1CCN(Cc2ccc(NC(=O)Nc3ccc(Oc4ccc5ncncc5c4)cc3)cc2C(F)(F)F)CC1` have GI50 strictly under 4 nM?
true (1)
